Molecular target: human PD-L1 (Homo sapiens (Human), UniProt Q9NZQ7)
Sequence (Q9NZQ7 19-239): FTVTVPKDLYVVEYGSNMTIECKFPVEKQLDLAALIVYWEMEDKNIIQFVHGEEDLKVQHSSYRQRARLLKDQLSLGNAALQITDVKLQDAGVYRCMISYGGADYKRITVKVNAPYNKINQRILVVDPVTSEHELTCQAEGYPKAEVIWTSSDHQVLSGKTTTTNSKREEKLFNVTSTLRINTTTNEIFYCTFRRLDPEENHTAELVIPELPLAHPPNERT
Assay: Enzyme-Linked Immunosorbent Assay (ELISA), PD-1/PD-L1 binding
Conditions: human PD-1/PD-L1 ELISA, plates coated with human PD-L1
pIC50: −log10 of the molar value.

{"SMILES_STRUCTURE": "COc1cc(-c2cccc(-c3cccc(NC(=O)c4cn(C)c(=O)n(C)c4=O)c3C)c2Cl)cc(F)c1CNC[C@@H]1CCC(=O)N1", "pIC50": "> 8.00"}
{"SMILES_STRUCTURE": "COc1cc(-c2cccc(-c3cccc(NC(=O)c4nn(C)c(=O)n(C)c4=O)c3C)c2C)cc(F)c1CN[C@H]1CNC(=O)C1", "pIC50": "> 8.00"}
{"SMILES_STRUCTURE": "COc1cc(-c2cccc(-c3cccc(NC(=O)c4cn(C)c(=O)n(C)c4=O)c3C)c2C)cc(F)c1CN[C@@H]1CCOC1", "pIC50": "> 8.00"}
